Source: patent US9108958B2

- target-under-test: human CCR5 (Homo sapiens, UniProt P51681)
- Construct: expressed in transfected cells; host or cells: CHO cells co-expressing Gα16, under puromycin and zeocin selection; membrane preparation
- Sequence (P51681 whole entry): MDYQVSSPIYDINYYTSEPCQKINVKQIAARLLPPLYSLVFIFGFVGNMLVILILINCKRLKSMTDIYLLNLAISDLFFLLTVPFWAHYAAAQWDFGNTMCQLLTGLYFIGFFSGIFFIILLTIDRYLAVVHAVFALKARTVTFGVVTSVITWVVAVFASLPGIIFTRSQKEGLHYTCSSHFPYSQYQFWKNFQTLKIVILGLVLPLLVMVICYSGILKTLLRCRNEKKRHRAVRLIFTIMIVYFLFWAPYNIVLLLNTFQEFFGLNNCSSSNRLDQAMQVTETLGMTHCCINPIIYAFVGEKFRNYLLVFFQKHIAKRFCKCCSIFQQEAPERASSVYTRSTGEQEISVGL
- test: CCR5 receptor membrane binding assay ([125I]RANTES, CHO (Gα16) human CCR5 cell membranes, SPA beads)
- condition-set: bound radioactivity after 6 h, read-out: hKi [nM] (CCR5)
experimental-endpoint: Ki (nM)
The answer is to be given in nM; state only the numeric part.

Exercise: Output Ki of Cc1c(C(=O)N2CCC(N[C@H]3CCOC[C@H]3F)CC2)nc(CF)nc1N1CCc2ccc(C(F)(F)F)cc2C1 (relative stereo)
Solution: 3450

Exercise: Output Ki of Cc1c(C(=O)N2CCC(N[C@@H]3CCOC[C@@H]3F)CC2)nc(C2CCOCC2)nc1N1CCc2cc(C(F)(F)F)ccc2C1
Solution: 5870

Exercise: Output Ki of CO[C@H]1COCC[C@H]1NC1CCN(C(=O)c2nc(C(F)(F)F)nc(N3CCc4ccc(C(F)(F)F)cc4C3)c2C)CC1
Solution: 265

Exercise: Output Ki of CO[C@H]1COCC[C@H]1NC1CCN(C(=O)c2nc(C3CCOCC3)nc(N3CCc4cc(C(F)(F)F)ccc4C3)c2C)CC1
Solution: 700

Exercise: Output Ki of Cc1c(C(=O)N2CCC(N[C@H]3CCOC[C@@H]3F)CC2)nc(CF)nc1N1CCc2ccc(C(F)(F)F)cc2C1 (relative stereo)
Solution: 3680

Exercise: Output Ki of CO[C@H]1COCC[C@H]1NC1CCN(C(=O)c2nc(-c3cc(C)on3)nc(N3CCc4ccc(C(F)(F)F)cc4C3)c2C)CC1
Solution: 130

Exercise: Output Ki of Cc1c(C(=O)N2CCC(N[C@H]3CCOC[C@H]3F)CC2)nc(C2CCOCC2)nc1N1CCc2cc(C(F)(F)F)ccc2C1
Solution: 4580

Exercise: Output Ki of CO[C@@H]1COCC[C@@H]1NC1CCN(C(=O)c2nc(C(F)F)nc(N3CCc4ccc(C(F)(F)F)cc4C3)c2C)CC1
Solution: 160

Exercise: Output Ki of Cc1cc(-c2nc(NC[C@H]3CCC[C@@H](c4ccc(C(F)(F)F)cc4)O3)c(C)c(C(=O)N3CCC(N[C@@H]4CCOC[C@@H]4F)CC3)n2)no1
Solution: 50

Exercise: Output Ki of Cc1cc(-c2nc(C(=O)N3CCC(N[C@@H]4CCOC[C@@H]4F)CC3)c(C)c(N3CCc4ccc(C(F)(F)F)cc4C3)n2)no1
Solution: 1350

Exercise: Output Ki of CO[C@@H]1COCC[C@@H]1NC1CCN(C(=O)c2nc(-c3cc(C)on3)nc(N3CCc4cc(C(F)(F)F)ccc4C3)c2C)CC1
Solution: 380

Exercise: Output Ki of Cc1cc(-c2nc(C(=O)N3CCC(N[C@@H]4CCOC[C@@H]4F)CC3)c(C)c(N3CCc4cc(C(F)(F)F)ccc4C3)n2)no1
Solution: 17300

Exercise: Output Ki of Cc1c(NC[C@H]2CCC[C@@H](c3ccc(C(F)(F)F)cc3)O2)nc(C2CCOCC2)nc1C(=O)N1CCC(N[C@H]2CCOC[C@H]2F)CC1
Solution: 210

Exercise: Output Ki of CO[C@@H]1COCC[C@@H]1NC1CCN(C(=O)c2nc(C3CCOCC3)nc(N3CCc4cc(C(F)(F)F)ccc4C3)c2C)CC1
Solution: 310

Exercise: Output Ki of CO[C@H]1COCC[C@H]1NC1CCN(C(=O)c2nc(CF)nc(Nc3ccc(Cl)c(Cl)c3)c2C)CC1
Solution: 75

Exercise: Output Ki of Cc1c(NC[C@H]2CCC[C@@H](c3ccc(C(F)(F)F)cc3)O2)nc(C2CCOCC2)nc1C(=O)N1CCC(N[C@@H]2CCOC[C@@H]2F)CC1
Solution: 270
